System: CCRF-CEM
Experiment: NCI tumour cell line growth inhibition, 48 h
Activity calls are given as the source filed them. Cut-off read from the data, not from the text of the source: active = GI50 up to about 1.1 µM and inactive = higher.
Could you please pick one outcome from this set? yes (1) (active), no (0) (inactive)

See these solved cases before continuing.
Molecule | Label Class
O=c1c2ccccc2nc(-c2ccccc2)n1NC(=S)Nc1ccc(Cl)cc1[N+](=O)[O-] | no (0)
COCOc1ccc(C2(O)Oc3cc(OCOC)ccc3C2C)c(O)c1 (configuration not stated) | no (0)
Nc1nnc2ccc(Cl)cc2[n+]1[O-] | no (0)

Status in this test for CC1Nc2ccccc2NC1C=C(C#N)C#N (configuration not stated) ?
no (0)

Status in this test for `CC(C)OC(=O)c1ccc(NCC2=CC(=O)C=CC2=O)cc1` ?
no (0)
